As shown below, each of these molecules has a reported T/C value.
# System: P388
# Method Description: Inhibitory activity in vivo against P388 leukemia cells in mice at a dose of 100 mg/kg upon intraperitoneal administration
# Assay type: functional, Mus musculus

Would you please look over these solved cases?
Request: Requested read-out: T/C. Entry: CN(C)CCN1C(=O)c2cccc3cccc(c23)C1=O
Response: 166

Request: Requested read-out: T/C. Entry: COc1ccc2c3c(ccc(OC)c13)C(=O)N(CCN(C)C)C2=O
Response: 118

Request: Requested read-out: T/C. Entry: CN(C)CCN1C(=O)c2cccc3c(O)ccc(c23)C1=O.I
Response: 107

Request: Requested read-out: T/C. Entry: Cl.O=C1c2cccc3cc([N+](=O)[O-])cc(c23)C(=O)N1CCN1CCOCC1
Response: 183

Request: Requested read-out: T/C. Entry: CN(C)CCN1C(=O)c2cc(O)cc3cc(O)cc(c23)C1=O
Response: 148

Request: Requested read-out: T/C. Entry: CN(C)CCN1C(=O)c2cccc3c(Cl)ccc(c23)C1=O
Response: 120

Request: Requested read-out: T/C. Entry: COc1ccc2c3c(cccc13)C(=O)N(CCN(C)C)C2=O
Response: 117

Request: Requested read-out: T/C. Entry: CN(C)CCN1C(=O)c2cccc3cc(O)cc(c23)C1=O
Response: 115

Others:
Request: Requested read-out: T/C. Entry: O=C1c2cc([N+](=O)[O-])cc3cc([N+](=O)[O-])cc(c23)C(=O)N1c1nncs1
Response: 137

Data provenance: ChEMBL document CHEMBL1123030
